From: PubChem BioAssay (NCI)

Test: NCI Yeast Anticancer Drug Screen. Data for the rad14 strain (AID 159);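 further: 0% = growth of vehicle-treated control cultures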
Conditions: S. cerevisiae rad14 strain growth inhibition; at 11.0 µM; active compounds read high
About 79,000 compounds went through this panel and 15% of them were active in at least one assay; those are over-represented in the sample as a whole.
Reported growth inhibition values follow for various compounds
Field: numeric (%). Do not append units.

Solved cases below.
• COC(=O)C1CCCCC1C(=O)Nc1ccccc1 (stereo not drawn) = -2
• COc1cccc(C(NC2=NCCC=N2)c2cc3c(cc2O)OCO3)c1O (stereo not drawn) = 8

Provide measured growth inhibition value, entry: `CN(C)CC(CN(C)C)C(=O)/C=C/c1ccc(Cl)cc1Cl` 17

Provide measured growth inhibition value, entry: `O=c1c2ccccc2nc(-c2ccc(Cl)cc2)n1O` 98

Provide measured growth inhibition value, entry: `CNCC(C)CNC` -13

Provide measured growth inhibition value, entry: `CCCCCCCN1C(=O)c2ccccc2C1=O` 4

Provide measured growth inhibition value, entry: `O=[N+]([O-])c1cc[n+]([O-])c(Cl)c1` 19

* * *

Test: NCI Yeast Anticancer Drug Screen. Data for the mlh1 strain (AID 171);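 further: 0% = growth of vehicle-treated control cultures of the same strain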
Settings: S. cerevisiae mlh1 strain growth inhibition; at 100.0 µM
This is part of a sample that, as a whole, favours compounds with a hit. Of some 79,000 tested, about 15% had one in any assay. Calls of active or inactive are those of the source. Rule as the data show it: active = growth inhibition above about 70%; inactive = the rest.
Hello, when you answer, please use one of the following outcomes: true (1) = active, false (0) = inactive

Recorded call for `c1ccc2nc3c(nc2c1)sc1ccccc13` ? false (0)

Recorded call for `c1cc(-c2sc(-c3ccncc3)c(-c3ccncc3)c2-c2ccncc2)ccn1` ? true (1)

* * *

Reported growth inhibition values follow for various compounds
Assay: NCI Yeast Anticancer Drug Screen. Data for the rad50 strain (AID 155);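 further: 0% = growth of vehicle-only cultures of the same strain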
Details: S. cerevisiae rad50 strain growth inhibition; at 50.0 µM (retest, dose inferred, filed as 5.0); active compounds read high
About 79,000 compounds went through this panel and 15% of them were active in at least one assay; those are over-represented in the sample as a whole.
Field: numeric (%). Do not append units.

Solved cases below.
- CCCCOc1ccc2nc(C)cc(N=[N+]=[N-])c2c1: 49
- CC1=NN(C(=O)c2ccccc2O)C(=O)/C1=C/c1ccco1: 89
- CC(C)(N=Nc1ccc(Cl)cc1)[N+](=O)[O-]: 98
- CCCCCCNCCCNc1c2cc(OC)ccc2nc2cccc([N+](=O)[O-])c12: 97

Provide measured growth inhibition value, entry: CCN1CCC(O)(c2ccc(Oc3ccc(Cl)cc3)cc2)C(C(=O)c2ccc(Oc3ccc(Cl)cc3)cc2)C1 (stereo not given) 7

* * *

Assay: NCI Yeast Anticancer Drug Screen. Data for the mlh1 rad18 strain (AID 175)
Settings: S. cerevisiae mlh1 rad18 strain growth inhibition; at 5.0 µM (retest, dose inferred, filed as 0.5); active compounds read high
The panel holds about 79,000 compounds, 15% with a hit somewhere; the sample as a whole holds those more often.
Use TRUE when the recorded growth inhibition is no lower than 10%; use FALSE when it is lower.

Would you please look over these solved cases?
• CC(C(=O)N1C(=O)N(C(=O)C(C)C(O)c2ccccc2)C2CCCCC21)C(O)c1ccccc1 (stereo not drawn) = FALSE
• O=C(Nc1ccc(Cl)cc1)c1cc2cc(N=Nc3ccccc3Cl)ccc2oc1=O = TRUE
• CCO/C=C1\SC(=S)N(c2ccc(OCC)cc2)C1=O = TRUE
• CN1CCN(C(=O)c2cccc3cccc(C(=O)O)c23)CC1 = FALSE
• CCN(CC)CCCNc1ccc([N+](=O)[O-])c2nc3ccc(OC)cc3c(NCCCN(CC)CC)c12 = TRUE
• CO[C@@]1([C@@H](Cl)c2ccccc2)C(=O)N(C)/C(=C\c2ccccc2)C(=O)N1C = FALSE
• Nc1cc2c(cc1N)-c1ccccc1C2=O = FALSE
• S=C(NCc1ccccn1)N/N=C/c1ccccn1 = FALSE
• O=C(C#Cc1ccccc1)/C=C/c1ccccc1 = FALSE
• COc1ccc(C2CC(C)(N3CCCC3)Oc3cc4c(cc32)OCO4)cc1 (stereo not drawn) = FALSE

I'd appreciate it if you could say whether `Cc1c2cc[n+](CCO)cc2c(C)c2c1[nH]c1ccc(O)cc12` has growth inhibition at least equal to 10%. TRUE

I'd appreciate it if you could say whether `OC(c1ccccc1)(c1ccccc1)c1nccc2ccccc12` has growth inhibition at least equal to 10%. TRUE

I'd appreciate it if you could say whether CC1=NN(C(=O)CC(=O)NC(=O)/C=C\c2ccccc2)C(=O)C1N=Nc1ccc([N+](=O)[O-])cc1 (stereo not drawn) has growth inhibition at least equal to 10%. FALSE
